The reported measurements were obtained from the supplement of paper PMC6555819.

Test system: RARa homodimer (NR concentration 270 nM)
PROTOCOL NOTES: PBM binding z-score (relative to random genomic background probes); higher = stronger binding; sequences stand for … in GC…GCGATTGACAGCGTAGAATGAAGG

CHAIN | PBM binding z-score
ATCTGTAGGTAAAGTTCAGTGAAAGATCGATAGA | 0.559
CCTAGTTCGTCAGGAGGTCACACACCGGATATGA | 2.32
AATACAGGGTCACTAGGCCAGAGTCGGTACGAAT | 1.14
CGTCCAAGGTCAGCAGGTCAGTAAAAGCGACGTG | 0.549
TCGAGTAGGTTACCAAGGGGGCATTCAGCTTTCT | -0.167
AGAATGATGTTACCAAAGATCAGGGAAACGCTTG | 0.147
ATATGTAGGTTATCGGGTCAATCAGTTTGCGCAT | 1.3
CGAACGAGGGCATGAGTTGATAGGAAATGCCGAT | -0.46
GCTATTAGTTGAAAGGGCAACCGCATGATTCTCG | 0.567
AGAATGAGGTTATTAAGTTCAGGGAATTGCGGTC | 0.854
CCTTCCGGGTCACTCCAGGTTATAGCATCGGAGT | 0.518
CAAACTAGGTCAACGGTCAAAGTCGAGCCAACCA | 0.962
CCTTACGGGTCTCGAGGTTATAGCACGACGAGCG | -0.452
ACAATGAGGTTATACGTAGATCAGGGAAGAAAGT | 0.312
AATACAAGGTCACTAGGCCAGAGTAGGTACGAAT | 1.19
CGTCAGAGTTCAAGGTAACGTAACAGAAAGCAGC | 0.785
ATCTCAAGGTAACAAGTTCAGTGAAAGAGAGGAC | 1.14
GCTAGTTGGTCAGTAAACGGTCACACACCGGTCG | 0.301

====

Test system: PPARg DBDmut:RXRa IVT, anti-PPARg (DBD mutation: PPARg1 K132A/R137A, NR concentration 270 nM, RXRa partner concentration 90 nM)
PROTOCOL NOTES: PBM binding z-score (relative to random genomic background probes); higher = stronger binding; sequences stand for … in GC…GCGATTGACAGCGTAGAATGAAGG
Rule: PBM binding z-score under 0.2 gives NO, otherwise YES.

CHAIN | LABEL CLASS
TCGAGTAGGTTAGTCGGGGCATTTAGCCAACATA | NO
AGTATGAGGTTATACGTAGATCAGGGAAGAAAGT | YES
CGTCCAAGGTCAGCAGGTCAGTGAAAGCGACGTG | NO
TTACCAAGGTGCGCTGAGGTCGTTGATCCAACTC | NO
CGTCCAAGGTCAAAGGTCAGTGGAGAGATGACGG | YES
GGATCGAGGGCAAAGTTGATAGCATCTGTCGACG | YES
TCCTATAGGTAAATGCTAGGTGAAAGTCCGATCT | NO
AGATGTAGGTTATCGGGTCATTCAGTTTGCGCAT | YES
CCGACTGGGGCAAGGTTACCATAACGCACAGCCA | NO
CAAACTAGGTCATGAGGTCAAAGTCCGCTTCCCG | YES
CCGAATAGGTTATGGGGCATTCAGGCAACGGTGA | NO
CGTCCAAGGTCAGAGAGGTCTGTGAATGCCGAGT | NO
CGAAATAGGTCAAGGACAGTGAATCTCCGCACGC | YES
ACTAGCAGCCCAAGGGTCACTCAAGATTAGTCCG | NO
CCTAGCAGGCCAGGGTCAATCAAGCATTTCGCTT | NO
ATATGTAGGTTAGCTGGGGTCATTCAAACTAGGC | YES
GCTAGGAGGACAAGGTCAGAGCTTTGTCCGTAGA | NO
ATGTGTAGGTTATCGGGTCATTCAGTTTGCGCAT | YES
CGTCCAAGGTGAAAGGTCAGTGAAGAGATGACGG | NO
CGTCAAAGTTCAATTAAGGTAACGTAAAGCACGC | YES
TGAATGAGGTTATAAGATCAGGGGACGTTGCAAA | YES
CCTTACAGGTCACTCCAGGTTATAGCATCGGAGT | YES
AGAACGAGGGCAATGAGTTGATAGCGCGGGTGGC | NO
GCTGCTAGGTCACCTGATGGTCAGCTAAAGCTCG | YES
GGAACGAGGGCAAGTTGATAGCCGAGTTTGATGG | NO
ATACCAAGGCGATCGTGAGGTCGTTGATACTAAC | NO
